test: in vitro; settings: human
quantity.kind: CC50 at 24 h (µM)

[
  {
    "chemical.smiles": "COC(=O)CCSc1ccc([N+](=O)[O-])c2nonc12",
    "test.value": 54.5
  }
]

====

Entries and their melting point

[
  {
    "chemical.smiles": "O=C(O)CCC(=O)OCCOCCSc1ccc([N+](=O)[O-])c2nonc12",
    "melting point": "74 to 76 °C"
  },
  {
    "chemical.smiles": "O=[N+]([O-])c1ccc(Sc2ncccn2)c2nonc12",
    "melting point": "144 to 147 °C"
  },
  {
    "chemical.smiles": "CC(=O)N[C@@H](CSc1ccc([N+](=O)[O-])c2nonc12)C(=O)O",
    "melting point": "166 to 168 °C"
  },
  {
    "chemical.smiles": "O=[N+]([O-])c1ccc(Sc2nc3ccccc3[nH]2)c2nonc12",
    "melting point": "206 to 208 °C"
  },
  {
    "chemical.smiles": "O=C(O)CCC(=O)OCCCCSc1ccc([N+](=O)[O-])c2nonc12",
    "melting point": "90 to 93 °C"
  }
]

====

test system: influenza virus A/Puerto Rico/8/34 H1N1 (PR8); assay: microbe, parasite or virus in culture; conditions: unidentified influenza virus, A549, read-out: IC50, ICW – A549
pIC50: −log10 of the molar value.
Entries and their measured pIC50 follow.

[
  {
    "compound": "O=[N+]([O-])c1ccc(SCc2ccccc2)c2nonc12 [Compound 25]",
    "pIC50": 5.05
  },
  {
    "compound": "COC(=O)CCSc1ccc([N+](=O)[O-])c2nonc12 [Compound 12]",
    "pIC50": 5.00
  },
  {
    "compound": "COC(=O)C(CSc1ccc([N+](=O)[O-])c2nonc12)NC(=O)OC(C)(C)C (stereo not drawn) [Compound 17]",
    "pIC50": 5.02
  }
]
